- target.entity: α-glucosidase
- protocol: p-nitrophenyl glycoside hydrolysis assay, absorbance at […] nm
- Format: biochemical
Recorded measurements of IC50, one per entry
A complete answer gives the number followed by the unit.

IN: Lab request: please report IC50 under test system α-glucosidase for Oc1ccc(/C=C/c2cc(O)cc(O)c2)cc1 [Resveratrol, reference compound]
OUT: 31.2 µM

IN: Lab request: please report IC50 under test system α-glucosidase for `C=C[C@]1(C)C=C2[C@@H](O)[C@@]3(O)OC[C@@]4(CCCC(C)(C)[C@@]43O)[C@@]2(O)CC1`
OUT: 11.9 µM

IN: Lab request: please report IC50 under test system α-glucosidase for `C=C[C@@]1(C)C[C@@H](O)C2=C(C(=O)[C@@]3(O)OC[C@@]24CCCC(C)(C)[C@@]43O)[C@H]1OC`
OUT: 4.6 µM
